Test system: i-motif DNA
Test: Displacement of thiazole orange from human ILPR i-motif DNA at 10 equiv. at pH 7.4 by fluorescent intercalator displacement assay
Assay type: nucleic-acid assay
Measure Name: Activity (%)
Enter your answer as a number in %; do not include the unit.

Smi: O=c1c(-c2ccc(O)cc2)coc2cc(O[C@@H]3O[C@H](CO)[C@@H](O)[C@H](O)[C@H]3O)cc(O)c12
Activity / %: 24.2
--
Smi: O=C(O)[C@H]1O[C@@H](Oc2cc3oc(-c4ccccc4)cc(=O)c3c(O)c2O)[C@H](O)[C@@H](O)[C@@H]1O
Activity / %: 23.9
--
Smi: COC(=O)C1=CO[C@@H](O[C@@H]2O[C@H](CO)[C@@H](O)[C@H](O)[C@H]2O)[C@@H]2C(CO)=CC[C@H]12
Activity / %: 21.2
--
Smi: OC[C@H]1O[C@@H](O[C@@H]2[C@@H](CO)O[C@](O)(CO)[C@H]2O)[C@H](O)[C@@H](O)[C@H]1O
Activity / %: 26.7
--
Smi: O=C(O)C1=CO[C@@H](O[C@@H]2O[C@H](CO)[C@@H](O)[C@H](O)[C@H]2O)[C@@H]2C(CO)=CC[C@H]12
Activity / %: 12.3

Consider now this further molecule.
Per the records, this molecule ( `O=c1c(-c2ccc(O)cc2)coc2cc(O[C@@H]3O[C@H](CO)[C@@H](O)[C@H](O)[C@H]3O)ccc12` ) has Activity equal to 20

###

Recorded ΔTm by entry
System: i-motif DNA
Assay: Binding affinity to human ILPR i-motif DNA assessed as change in melting temperature at 20 uM at pH 7.4 by FRET assay
Assay type: nucleic-acid assay
Reply numerically in °C, unit not repeated.

Past entries and their recorded results:
Smi: O=c1c(-c2ccc(O)cc2)coc2cc(O[C@@H]3O[C@H](CO)[C@@H](O)[C@H](O)[C@H]3O)cc(O)c12
ΔTm / °C: -2.4
--
Smi: O=c1ccc2cc(O[C@@H]3O[C@H](CO)[C@@H](O)[C@H](O)[C@H]3O)c(O)cc2o1
ΔTm / °C: -2.6
--
Smi: O=C(O)C1=CO[C@@H](O[C@@H]2O[C@H](CO)[C@@H](O)[C@H](O)[C@H]2O)[C@@H]2C(CO)=CC[C@H]12
ΔTm / °C: -2.2
--
Smi: O=c1c(-c2ccc(O)cc2)coc2cc(O[C@@H]3O[C@H](CO)[C@@H](O)[C@H](O)[C@H]3O)ccc12
ΔTm / °C: -2.4
--
Smi: COC(=O)C1=CO[C@@H](O[C@@H]2O[C@H](CO)[C@@H](O)[C@H](O)[C@H]2O)[C@@H]2C(CO)=CC[C@H]12
ΔTm / °C: -1.8
--
Smi: O=C(O)[C@H]1O[C@@H](Oc2cc3oc(-c4ccccc4)cc(=O)c3c(O)c2O)[C@H](O)[C@@H](O)[C@@H]1O
ΔTm / °C: -2.6

Alright, here's another compound for you.
Sample `OC[C@H]1O[C@@H](O[C@@H]2[C@@H](CO)O[C@](O)(CO)[C@H]2O)[C@H](O)[C@@H](O)[C@H]1O` ; ΔTm observed: -2.7

###

Tested on: dsDNA
Assay: Binding affinity to human 1BNA double stranded DNA assessed as change in melting temperature at 20 uM at pH 7.4 by FRET assay
Format: nucleic-acid assay
Reported ΔTm values follow for various molecules
Respond with a number, then the unit of measure.

Briefly, ΔTm measured for `O=c1ccc2cc(O[C@@H]3O[C@H](CO)[C@@H](O)[C@H](O)[C@H]3O)c(O)cc2o1` : -2.7 °C

The measured ΔTm associated with `O=c1c(-c2ccc(O)cc2)coc2cc(O[C@@H]3O[C@H](CO)[C@@H](O)[C@H](O)[C@H]3O)cc(O)c12` reads -3 °C

Entry under test: `COC(=O)C1=CO[C@@H](O[C@@H]2O[C@H](CO)[C@@H](O)[C@H](O)[C@H]2O)[C@@H]2C(CO)=CC[C@H]12` . Its ΔTm was -3.5 °C

// `O=C(O)[C@H]1O[C@@H](Oc2cc3oc(-c4ccccc4)cc(=O)c3c(O)c2O)[C@H](O)[C@@H](O)[C@@H]1O` : ΔTm value = -2.5 °C

The molecule identified as `O=c1c(-c2ccc(O)cc2)coc2cc(O[C@@H]3O[C@H](CO)[C@@H](O)[C@H](O)[C@H]3O)ccc12` registered its ΔTm at -2.3 °C

The recorded ΔTm for entry `OC[C@H]1O[C@@H](O[C@@H]2[C@@H](CO)O[C@](O)(CO)[C@H]2O)[C@H](O)[C@@H](O)[C@H]1O` equals -2.7 °C

Input `O=C(O)C1=CO[C@@H](O[C@@H]2O[C@H](CO)[C@@H](O)[C@H](O)[C@H]2O)[C@@H]2C(CO)=CC[C@H]12` . Output ΔTm: -4.8 °C
